System: nude mice, HT29 intrarenal xenograft, tumor weight T/C
protocolDetails: NCI In Vivo Anticancer Drug Screen. Data for tumor model HT29;CX-1 Human Adenocarcinoma (MER+) (intrarenal inoculation) in NU/NU Swiss (nude) mice
measurementContext: endpoint: mean tumor weight change; dose: 150.0 mg/kg/injection; schedule: Q04DX004 (sc); vehicle: saline with Tween-80; higher = larger tumour
Records with an inconclusive call do not appear.
reportedEndpoint: T/C

>  <compound>
CN=S(=O)(OCCCCCOS(=O)(=NC)c1ccccc1)c1ccccc1 (centres undefined)

>  <recordedMeasurement>
66 % of control

$$$$
>  <compound>
C=CCNc1nc2c(s1)CCc1cc(OC)c(OC)cc1-2

>  <recordedMeasurement>
38 % of control

$$$$
>  <compound>
CC(/C=C/c1ccccc1)=Nc1ccccc1

>  <recordedMeasurement>
98 % of control

$$$$
>  <compound>
CCCCCCC(=O)CC(SCC)c1ccccc1Cl (centres undefined)

>  <recordedMeasurement>
94 % of control

$$$$
>  <compound>
OC1CCCC2CCCNC12 (centres undefined)

>  <recordedMeasurement>
83 % of control

$$$$
>  <compound>
C[Si](C)(CCl)N[Si](C)(C)CCl

>  <recordedMeasurement>
84 % of control

$$$$

INPUT: Returns the measured T/C for the input compound. Input: O=[n+]1c2ccccc2n([O-])c2ccccc21.[Cl][Ni][Cl]
OUTPUT: 89 % of control

INPUT: Input CC1(C)OC2C(COC(=O)c3ccc([N+](=O)[O-])cc3)OC(NC(=O)N(CCCl)N=O)C2O1 (centres undefined)
OUTPUT: 38 % of control

INPUT: Input CCNC(=O)OCc1c(COC(=O)NCC)c(-c2ccc(Cl)c(Cl)c2)n2c1CCC2
OUTPUT: 66 % of control

* * *

Tested on: nude mice, HT29 intrarenal xenograft, tumor weight T/C
protocolDetails: NCI In Vivo Anticancer Drug Screen. Data for tumor model HT29;CX-1 Human Adenocarcinoma (MER+) (intrarenal inoculation) in NU/NU Swiss (nude) mice
measurementContext: endpoint: mean tumor weight change; dose: 2400.0 mg/kg/injection; schedule: Q04DX004 (sc); vehicle: Klucel (hydroxypropylcellulose) (HPC); higher = larger tumour
Inconclusive results are not listed.
T/C values, listed per item

INPUT: Item: C=C[Si]12OCCN(CCO1)CCO2 Test system: nude mice, HT29 intrarenal xenograft, tumor weight T/C Read-out: T/C Value: ?
OUTPUT: 71 % of control

INPUT: Input Cn1cc(C2NC(=O)c3ccccc3N2)c2ccccc21 (stereo not given)
OUTPUT: 94 % of control

INPUT: Input O=c1[nH]c(=O)n(C2CC(O)C(CO)O2)cc1Br (stereo not given)
OUTPUT: 59 % of control

INPUT: Input C(C#CCN1CCOCC1)#CCN1CCOCC1
OUTPUT: 68 % of control

INPUT: Input Ic1ncnc2c1ncn2C1CCCO1 (stereo not given)
OUTPUT: 72 % of control

* * *

Test system: nude mice, HT29 intrarenal xenograft, tumor weight T/C
protocolDetails: NCI In Vivo Anticancer Drug Screen. Data for tumor model HT29;CX-1 Human Adenocarcinoma (MER+) (intrarenal inoculation) in NU/NU Swiss (nude) mice
measurementContext: endpoint: mean tumor weight change; dose: 1800.0 mg/kg/injection; schedule: Q04DX004 (sc); vehicle: Klucel (hydroxypropylcellulose) (HPC); higher = larger tumour
Results filed as inconclusive are left out.
reportedEndpoint: T/C

>  <smilesStructure>
Cc1ccc(NCCN(C)C)c2c(=O)c3cc(O)ccc3sc12

>  <T/C>
68 % of control

$$$$
>  <smilesStructure>
CCCCCC(=O)O[C@]1(C(C)=O)CC[C@H]2[C@@H]3CCC4=CC(=O)CC[C@]4(C)[C@H]3CC[C@@]21C

>  <T/C>
36 % of control

$$$$

Let's switch to this molecule now.
INPUT: Returns the measured T/C for the input molecule. Input: CN(C1=NS(=O)(=O)N=C(N(C)c2ccccc2)O1)c1ccccc1
OUTPUT: 168 % of control

* * *

Test system: nude mice, HT29 intrarenal xenograft, tumor weight T/C
protocolDetails: NCI In Vivo Anticancer Drug Screen. Data for tumor model HT29;CX-1 Human Adenocarcinoma (MER+) (intrarenal inoculation) in NU/NU Swiss (nude) mice
measurementContext: endpoint: mean tumor weight change; dose: 100.0 mg/kg/injection; schedule: Q01DX010 (sc); vehicle: saline; higher = larger tumour
Inconclusive results are not listed.
T/C values, listed per item

>  <molecule>
CN(CO)c1nc(N(C)CO)nc(N(C)CO)n1

>  <T/C>
17 % of control

$$$$
>  <molecule>
CC1CN1P1(N2CC2C)=NP(N2CC2C)(N2CC2C)=NP(N2CC2C)(N2CC2C)=N1 (stereo unspecified)

>  <T/C>
101 % of control

$$$$
>  <molecule>
CCCCCC[C@H]([C@H](C)O)n1cnc2c(N)ncnc21

>  <T/C>
61 % of control

$$$$
>  <molecule>
NC(C/[N+]([O-])=N/O)C(=O)O (stereo unspecified)

>  <T/C>
53 % of control

$$$$

INPUT: Returns the measured T/C for the input molecule. Input: OCC1OC(n2cnc3c(=S)nc[nH]c32)C(O)C1O (stereo unspecified)
OUTPUT: 108 % of control

INPUT: Input C(CC1CO1)C1CO1 (stereo unspecified)
OUTPUT: 37 % of control

* * *

Tested on: nude mice, HT29 intrarenal xenograft, tumor weight T/C
protocolDetails: NCI In Vivo Anticancer Drug Screen. Data for tumor model HT29;CX-1 Human Adenocarcinoma (MER+) (intrarenal inoculation) in NU/NU Swiss (nude) mice
measurementContext: endpoint: mean tumor weight change; dose: 150.0 mg/kg/injection; schedule: Q04DX004 (sc); vehicle: saline with Tween-80; higher = larger tumour
Inconclusive results are not listed.
T/C values, listed per item

>  <compound>
CN(C)P(=O)(Oc1ccccc1)N(C)C

>  <T/C>
122 % of control

$$$$

INPUT: Returns the measured T/C for the input compound. Input: C[CH2][Ge]([CH2]C)[CH2]C.C[CH2][Ge]([CH2]C)[CH2]C.C[CH2][Ge]([CH2]C)[O][Ge]([CH2]C)[CH2]C
OUTPUT: 112 % of control

INPUT: Input CNc1cccnc1/C=N/NC(N)=S
OUTPUT: 110 % of control

INPUT: Input CC1=C(/C=C/C(C)=C/C=C/C(C)=C/C=O)C(C)(C)CCC1
OUTPUT: 61 % of control

INPUT: Input O=S(=O)(N=N/C=C1\C=CC=CN1O)c1cccs1
OUTPUT: 75 % of control

INPUT: Input Cn1c2nc(=O)n(-c3ccccc3)c(=O)c-2nc2c1CCCC2
OUTPUT: 106 % of control

INPUT: Input CCOC1=Cc2c(oc3c(C(C)(C)C)cc(OCC)cc23)OC(C(C)(C)C)=C1
OUTPUT: 256 % of control

INPUT: Input COC1=CC(=O)C(OC)=C(OC)C1=O
OUTPUT: 89 % of control

INPUT: Input Nc1ccc(C(OC(=O)c2cc3ccccc3c(Cc3c(O)c(C(=O)OC(c4ccc(N)cc4)(c4ccc(N)cc4)c4ccc(N)cc4)cc4ccccc34)c2O)(c2ccc(N)cc2)c2ccc(N)cc2)cc1
OUTPUT: 94 % of control

INPUT: Input O=[N+]([O-])c1ccc(Sc2ccncn2)c([N+](=O)[O-])c1
OUTPUT: 44 % of control

INPUT: Input CO[C@@H]1[C@H](O)CC[C@]2(CO2)[C@H]1[C@@]1(C)O[C@@H]1CC=C(C)C
OUTPUT: 179 % of control

INPUT: Input CC(=Nc1ccccc1)C1=C(O)C(Cc2ccccc2)NC1=O (stereo not given)
OUTPUT: 105 % of control

INPUT: Input CCCCCCCC(=O)[O][Hg][CH2]C1COC([CH2][Hg][O]C(=O)CCCCCCC)CO1 (stereo not given)
OUTPUT: 47 % of control

INPUT: Input CC(=O)CC(C)=O.CC(=O)CC(C)=O.O=N[O-].O=N[O-].[Co]
OUTPUT: 92 % of control

INPUT: Input ClCc1ccc2ccccc2n1
OUTPUT: 88 % of control

* * *

Tested on: nude mice, HT29 intrarenal xenograft, tumor weight T/C
protocolDetails: NCI In Vivo Anticancer Drug Screen. Data for tumor model HT29;CX-1 Human Adenocarcinoma (MER+) (intrarenal inoculation) in NU/NU Swiss (nude) mice
measurementContext: endpoint: mean tumor weight change; dose: 100.0 mg/kg/injection; schedule: Q04DX004 (sc); vehicle: saline with Tween-80; higher = larger tumour
Records with an inconclusive call do not appear.
T/C values, listed per item

Guide cases for T/C, answers given:
>  <compound>
Nc1cc2c3c(cccc3c1)C(=O)N(CCN1CCCC1)C2=O

>  <T/C>
202 % of control

$$$$
>  <compound>
O/N=C/c1ccccc1O.O/N=C/c1ccccc1O.[Cu]

>  <T/C>
43 % of control

$$$$
>  <compound>
Cc1cc2cc3cc(C)c(N)cc3nc2cc1N

>  <T/C>
90 % of control

$$$$

INPUT: Returns the measured T/C for the input compound. Input: Nc1nnc[se]1
OUTPUT: 33 % of control

INPUT: Input C=C1C(=O)OC2CC(C)C3C4OC4C(O)C3(C)C(O)C12 (stereo unspecified)
OUTPUT: 121 % of control

INPUT: Input C=C1N(C)c2ccccc2C1(C)C
OUTPUT: 73 % of control

Data credit: PubChem BioAssay AID206
